Tgt: Concanavalin-A (Canavalia ensiformis) (UniProt P02866)
Sequence (P02866 whole entry, looked up): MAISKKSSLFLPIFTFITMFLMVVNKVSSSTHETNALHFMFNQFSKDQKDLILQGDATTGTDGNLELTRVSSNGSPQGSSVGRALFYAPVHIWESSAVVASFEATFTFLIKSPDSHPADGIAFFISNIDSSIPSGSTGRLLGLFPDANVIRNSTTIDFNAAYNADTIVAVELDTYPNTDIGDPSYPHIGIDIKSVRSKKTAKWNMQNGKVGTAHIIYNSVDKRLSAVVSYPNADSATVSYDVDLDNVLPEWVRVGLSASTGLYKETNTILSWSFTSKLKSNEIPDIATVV
Test Protocol: ConA small-molecule binders, primary screen, artefact control for SMM control protein annotation, biochemical, small-molecule microarray, Alexa647 label, 635 nm (AID 1127);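 note: z combines 667 nm emission intensity with signal-to-noise across three replicate slides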
Test Settings: ConA-A647 binding fluorescence, higher = more signal
Metric: composite z-score
Note: the reply should be a number with no unit written.

These solved cases illustrate the format of a correct answer.
- Line Notation: "C#CCCCON=C1C[C@@H](O)[C@@H](O)[C@@H]2[C@@H]3C(=O)N(C4CCCCC4)C(=O)[C@@H]3CC[C@@H]12"
  Tgt: "Concanavalin-A (Canavalia ensiformis) (UniProt P02866)"
  Reported Measurement: 0.335
- Line Notation: "CON=C(C)CCN1CCc2nc(-c3ccccc3)c(-c3ccccc3)cc2C1"
  Tgt: "Concanavalin-A (Canavalia ensiformis) (UniProt P02866)"
  Reported Measurement: 1.13
- Line Notation: "COC(=O)C1=C(C)N(Cc2ccccc2)C2=C3C(=O)OCC[C@@H]3[C@@](O)(C(=O)OC)C(=O)N2[C@@H]1c1ccccc1"
  Tgt: "Concanavalin-A (Canavalia ensiformis) (UniProt P02866)"
  Reported Measurement: 0.325
- Line Notation: "CO[C@H]1COC(=O)[C@H](C)COC(=O)[C@@H](OCc2ccccc2)C=C[C@@H]1C"
  Tgt: "Concanavalin-A (Canavalia ensiformis) (UniProt P02866)"
  Reported Measurement: 0.233
- Line Notation: "CC(C)(C)N1C(=O)[C@H]2[C@H]3[C@H](O)[C@H](O)CC(=NNC(=O)OCc4ccccc4)[C@H]3CC[C@H]2C1=O"
  Tgt: "Concanavalin-A (Canavalia ensiformis) (UniProt P02866)"
  Reported Measurement: 0.275

composite z-score lookup needed for "CCN1C(=O)[C@H]2[C@H]3[C@H](O)[C@H](O)CC(=NNC(=O)OCc4ccccc4)[C@@H]3CC[C@H]2C1=O" , thanks. 0.145

Please give the measured composite z-score for this compound: "CC(CCC(=O)OC[C@H]1O[C@H](C#Cc2ccccc2)C=C[C@@H]1Oc1ccc(C)cc1)=NO[C@@H](C)c1cc(-c2c(C)cc(C)cc2C)no1" -0.214
